meta.source: PubChem BioAssay (EPA / NIEHS)

- Measurement protocol: ATG_ISRE_CIS: Attagene CIS-FACTORIAL HepG2 Assay for human Interferon Regulatory Factor 1 (IRF1) binding to an Interferon-Stimulated Response Element (ISRE) (AID 2282948)
- Run conditions: HepG2 ISRE cis-reporter (Attagene), mRNA transcription readout; actives raise or lower the signal
Active and inactive are the calls of the source. Rule for the calls: active = hit-call score of the fitted dose curve at least 0.9, where 1 is the maximum; inactive = score below 0.9.

# Test smiles, AC50
records = [
    ("Cc1ccc(N)cc1N", "inactive"),
    ("N#Cc1ccc(O)cc1", "inactive"),
    ("CCCCCCCc1ccc(O)cc1", "inactive"),
    ("C=CC(=O)OCC(F)(F)C(F)F", "150 µM (active)"),
]

---

- Measurement protocol: ACEA_ER_AUC_viability: ACEA Biosciences xCELLigence Real-Time Cell Analysis on Estrogen Receptor Agonism for Viability (AID 2283782);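 note: continuous compound exposure with impedance area under curve over 80 h; hit means loss of impedance signal meaning reduced cell growth or viability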
Records with an inconclusive call do not appear. Activity calls are given as the source filed them. How the source made its calls: active means hit-call score of the fitted dose curve at least 0.9, where 1 is the maximum; inconclusive means response in the unintended direction; inactive means score below 0.9.
Outcomes: true (1) = active, false (0) = inactive

# Molecule, Class assignment
data = [
    ("COP(=O)(CCC(=O)NCO)OC", "true (1)"),
    ("CC(O)C#N (stereo not given)", "true (1)"),
    ("Cc1ccc(C(=O)Cl)cc1", "false (0)"),
    ("CC(C)(C)c1ccccc1OP(=O)(Oc1ccccc1)Oc1ccccc1", "false (0)"),
    ("CCC(C)(C)c1ccc(O)cc1", "true (1)"),
]

---

- Measurement protocol: CCTE_Shafer_MEA_acute_per_network_burst_spike_number_std: CCTE's Neural Acute Assay for Standard Deviation of Number of Spikes in a Network Burst, Shafer Lab (AID 2284020);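 note: fitted for decrease in spike-number SD versus DMSO so actives lower it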
Calls of active or inactive are those of the source. Rule for the calls: active = hit-call score of the fitted dose curve at least 0.9, where 1 is the maximum; inactive = score below 0.9.
Outcomes: yes (1) = active, no (0) = inactive

# Compound, Class assignment
rows = [
    ("c1ccc2c(c1)Nc1ccccc1S2", "yes (1)"),
    ("CCCCC(CC)COP(=O)(Oc1ccccc1)Oc1ccccc1 (stereo not drawn)", "no (0)"),
    ("CCC(C)(C)c1ccc(O)cc1", "yes (1)"),
]

---

- Read-out: Macrophage colony-stimulating factor (MCSF), CSF1 (gene 1435)
- Measurement protocol: BSK_LPS_MCSF: BioMAP Diversity Plus: LPS Assay for Macrophage colony-stimulating factor (MCSF) Biomarker Activity (AID 2283083)
- Run conditions: primary human HUVEC with PBMC; actives raise or lower the signal
Calls of active or inactive are those of the source. Rule for the calls: active = hit-call score of the fitted dose curve at least 0.9, where 1 is the maximum; inactive = score below 0.9.
Outcomes: T = active, F = inactive

# Compound, Class assignment
data = [
    ("O=S1(=O)OCC2C(CO1)C1(Cl)C(Cl)=C(Cl)C2(Cl)C1(Cl)Cl (stereo not drawn)", "F"),
    ("CCCCN(CCCC)SN(C)C(=O)Oc1cccc2c1OC(C)(C)C2", "T"),
    ("COP(=O)(O)OC", "F"),
    ("c1ccc2c(c1)sc1ccccc12", "F"),
    ("CCCCC(CC)COC(=O)c1c(Br)c(Br)c(Br)c(Br)c1C(=O)OCC(CC)CCCC (stereo not drawn)", "F"),
    ("CC(C)(C)c1ccc(O)cc1", "F"),
    ("c1ccc(OP(Oc2ccccc2)Oc2ccccc2)cc1", "F"),
    ("CCOP(=S)(OCC)SCS(=O)(=O)CC", "F"),
]

---

- Tested on: Estrogen receptor (Homo sapiens) (UniProt P03372)
- Sequence (P03372 whole entry, looked up): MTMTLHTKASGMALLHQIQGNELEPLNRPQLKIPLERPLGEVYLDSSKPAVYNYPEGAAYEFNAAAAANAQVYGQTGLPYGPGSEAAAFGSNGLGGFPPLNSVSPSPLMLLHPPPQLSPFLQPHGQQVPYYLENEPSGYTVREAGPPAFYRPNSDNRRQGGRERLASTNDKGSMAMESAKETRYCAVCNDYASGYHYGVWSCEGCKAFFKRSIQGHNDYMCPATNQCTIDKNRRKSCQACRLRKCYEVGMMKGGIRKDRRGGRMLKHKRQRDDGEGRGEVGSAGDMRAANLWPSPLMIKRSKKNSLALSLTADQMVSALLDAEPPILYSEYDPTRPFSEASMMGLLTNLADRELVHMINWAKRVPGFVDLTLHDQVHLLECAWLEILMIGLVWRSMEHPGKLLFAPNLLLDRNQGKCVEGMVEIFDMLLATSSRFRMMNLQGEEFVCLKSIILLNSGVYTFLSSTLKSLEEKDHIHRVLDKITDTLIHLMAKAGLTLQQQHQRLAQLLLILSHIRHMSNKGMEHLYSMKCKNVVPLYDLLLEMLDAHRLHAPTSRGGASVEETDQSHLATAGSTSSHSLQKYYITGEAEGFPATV
- Measurement protocol: CCTE_Deisenroth_AIME_384WELL_LUC_Inactive: CCTE's 384-well Estrogen Receptor Transactivation Assay without AIME metabolic competence (ERTA luciferase; metabolism negative), Deisenroth Lab (AID 2284038);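 note: VM7Luc4E2 breast cells given medium preincubated 2 h with S9-free microspheres; hits raise estrogen receptor luciferase signal so potencies reflect agonists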
Records with an inconclusive call do not appear. Activity calls are given as the source filed them. The calls were made as follows: active = hit-call score of the fitted dose curve at least 0.9, where 1 is the maximum; inconclusive = response in the unintended direction; inactive = score below 0.9.
Outcomes: active, inactive

# Molecule, Class assignment
measured = [
    ("CCCCC(CC)COP(=O)(Oc1ccccc1)Oc1ccccc1 (stereo unspecified)", "inactive"),
    ("[N-]=[N+]=[N-]", "inactive"),
    ("CCC(C)(C)c1ccc(O)cc1", "active"),
    ("Nc1ccc2ccccc2c1", "inactive"),
    ("c1nc[nH]n1", "inactive"),
    ("CCCCc1ccc(O)cc1", "active"),
    ("CCCCN(CCCC)SN(C)C(=O)Oc1cccc2c1OC(C)(C)C2", "inactive"),
    ("Nc1cc2c3c(c1)C(c1ccccc1)=N[C@@H](NC(=O)c1cccnc1)C(=O)N3CC2", "inactive"),
    ("Cc1cccc(N)c1", "inactive"),
    ("CCOC(=O)c1ccccc1C(=O)OCC", "inactive"),
    ("O=c1ssc(Cl)c1Cl", "inactive"),
    ("c1ccc2c(c1)Nc1ccccc1S2", "active"),
    ("OCC1CO1 (stereo unspecified)", "inactive"),
    ("CCCCN(CCCC)N=O", "active"),
    ("ClC(Cl)c1ccccc1", "inactive"),
    ("CC(Cl)(Cl)C(=O)O", "inactive"),
]

---

- Measurement protocol: ATG_FoxO_CIS: Attagene CIS-FACTORIAL HepG2 Assay for human Forkhead box O (FoxO) (AID 2282943)
- Run conditions: HepG2 Attagene cis-reporter, FoxO element, mRNA; actives raise or lower the signal
The source made the active and inactive calls. Rule for the calls: active = hit-call score of the fitted dose curve at least 0.9, where 1 is the maximum; inactive = score below 0.9.
Outcomes: active, inactive

# Molecule, Class assignment
measured = [
    ("CCCCC(CC)COC(=O)c1c(Br)c(Br)c(Br)c(Br)c1C(=O)OCC(CC)CCCC (stereo unspecified)", "inactive"),
    ("N#Cc1ccc(O)cc1", "inactive"),
    ("Cc1ccc([N+](=O)[O-])cc1C", "inactive"),
    ("c1cc2c3c(cccc3c1)CC2", "inactive"),
    ("CCN(CC)C1CCCCC1", "inactive"),
    ("NC(=O)C(F)(F)C(F)(F)F", "inactive"),
    ("C=CC(=O)OCC(CC)(COC(=O)C=C)COC(=O)C=C", "inactive"),
    ("CSC(C)(C)C=NO", "inactive"),
    ("COP(=O)(CCC(=O)NCO)OC", "inactive"),
    ("CCCCN(CC)C(=O)SCCC", "inactive"),
    ("ClC(Cl)=C(c1ccc(Cl)cc1)c1ccccc1Cl", "active"),
    ("CCOc1ccc(C(C)(C)COCc2cccc(Oc3ccccc3)c2)cc1", "inactive"),
    ("CCN(CC)c1ccccc1", "inactive"),
    ("O=P(Oc1ccccc1)(Oc1ccccc1)Oc1ccccc1", "inactive"),
    ("CCOP(=S)(NC(C)C)Oc1ccccc1C(=O)OC(C)C (stereo unspecified)", "inactive"),
    ("CC1(C)CN=C(NN=C(/C=C/c2ccc(C(F)(F)F)cc2)/C=C/c2ccc(C(F)(F)F)cc2)NC1", "inactive"),
    ("CO/N=C(/C(=O)OC)c1ccccc1COc1ccccc1C", "inactive"),
    ("O=P1(N(CCCl)CCCl)NCCCO1 (stereo unspecified)", "inactive"),
    ("CCOP(=S)(S)OCC", "inactive"),
    ("O=S(=O)(F)C(F)(F)C(F)(F)C(F)(F)C(F)(F)C(F)(F)C(F)(F)C(F)(F)C(F)(F)F", "inactive"),
    ("C=C(C)C(=O)OCC1CO1 (stereo unspecified)", "inactive"),
    ("O=C(O)CF", "inactive"),
    ("CCCCC(CC)COP(=O)(Oc1ccccc1)Oc1ccccc1 (stereo unspecified)", "inactive"),
    ("ClC(Cl)(Cl)c1ccccc1", "inactive"),
    ("c1nc[nH]n1", "inactive"),
    ("ClC1=C(Cl)C2(Cl)C3C(Cl)C(Cl)CC3C1(Cl)C2(Cl)Cl (stereo unspecified)", "inactive"),
    ("Nc1cc2c3c(c1)C(c1ccccc1)=N[C@@H](NC(=O)c1cccnc1)C(=O)N3CC2", "inactive"),
    ("Cc1ccc(N)cc1N", "inactive"),
    ("O=[N+]([O-])c1cc(Cl)ccc1Cl", "inactive"),
    ("CC1=C(C(=O)Nc2ccccc2)S(=O)(=O)CCO1", "inactive"),
    ("O=C(O)C1C(C(=O)O)C2(Cl)C(Cl)=C(Cl)C1(Cl)C2(Cl)Cl (stereo unspecified)", "inactive"),
    ("Nc1ccc2ccccc2c1", "inactive"),
    ("N#C/C=C/c1ccccc1", "inactive"),
    ("CCCCc1ccccc1", "inactive"),
    ("COC(=O)C(F)(F)C(F)(F)OC(F)(C(F)(F)F)C(F)(F)OC(F)=C(F)F (stereo unspecified)", "inactive"),
    ("COC(N)=O", "inactive"),
    ("Cn1[nH]nnc1=S", "inactive"),
    ("OCC(F)(F)OC(F)(F)C(F)(F)OC(F)(F)CO", "inactive"),
    ("O=S(=O)(c1ccc(O)cc1)c1ccc(O)cc1", "inactive"),
    ("CC(O)C(F)(F)C(F)(F)F (stereo unspecified)", "inactive"),
    ("COP(N)(=S)OC", "inactive"),
    ("CC(C)Nc1ccc(Nc2ccccc2)cc1", "inactive"),
    ("C/C(=N\\NC(=O)Nc1cc(F)cc(F)c1)c1ncccc1C(=O)O", "inactive"),
    ("O=C(O)C(Cl)Cl", "inactive"),
    ("CCC1(c2ccccc2)C(=O)N=C(O)NC1=O (stereo unspecified)", "inactive"),
    ("Cc1ccc(C(=O)Cl)cc1", "inactive"),
]
